These measurements were taken from patent US8212016B2.

System: plasma and liver cholesterol
measurement-protocol: Percent cholesterol lowering in plasma and liver
Type: in vivo
study-conditions: hamster, plasma
Listed compounds paired with reported cholesterol lowering Plasma

{"smiles-text": "O=C1[C@H](CC[C@H](O)c2ccc(F)cc2)[C@@H](c2ccc(O)cc2)N1c1ccc(F)cc1", "test-target": "plasma and liver cholesterol", "unit-spec": "%", "cholesterol lowering Plasma": 26}
{"smiles-text": "O=C1[C@H](CC[C@H](O)c2ccc(F)cc2)[C@@H](c2ccc(O)cc2)N1c1ccc(I)cc1", "test-target": "plasma and liver cholesterol", "unit-spec": "%", "cholesterol lowering Plasma": 22}
{"smiles-text": "O=C(CS[C@H]1C(=O)N(c2ccc(F)cc2)[C@@H]1c1ccc(O)cc1)c1ccc(F)cc1", "test-target": "plasma and liver cholesterol", "unit-spec": "%", "cholesterol lowering Plasma": 47}
